These data points were gathered from patent US11028090B2.

study-system: BRD4 (BD1+BD2) bromodomain (Homo sapiens (Human), UniProt O60885)
protocol-text: BRD4 binding inhibition (AlphaScreen, GST-BRD4 vs tetraacetylated histone H4 peptide)
cond: GST-BRD4 (BD1+BD2) / biotinylated acetyl-histone H4 (Lys5,8,12,16) peptide; read-out: IC50, BRD4 binding inhibition
pIC50: −log10 of the molar value.
Form field: pIC50 (one value per entry).

{"compound": "COc1cc2nc(NCCCCNC(=O)SC(C)C)c3nnc(C)n3c2cc1OC", "study-system": "BRD4 (BD1+BD2) bromodomain (Homo sapiens (Human), UniProt O60885)", "pIC50": "≥ 7.30"}
{"compound": "CCOC(=O)CC(=O)NCCCCNc1nc2cc(OC)ccc2n2c(C)nnc12", "study-system": "BRD4 (BD1+BD2) bromodomain (Homo sapiens (Human), UniProt O60885)", "pIC50": "≥ 7.30"}
{"compound": "Cc1nnc2c(NCCCCNC(=O)CCC(C)C)nc3cc(-c4nc5ccccc5n4C)ccc3n12", "study-system": "BRD4 (BD1+BD2) bromodomain (Homo sapiens (Human), UniProt O60885)", "pIC50": "≥ 8.00"}
{"compound": "COc1cc(C(F)(F)F)cc2c1nc(NCCCCNC(=O)CC(C)C)c1nnc(C)n12", "study-system": "BRD4 (BD1+BD2) bromodomain (Homo sapiens (Human), UniProt O60885)", "pIC50": "≥ 7.30"}
{"compound": "CCC(C)CC(=O)NCCCCNc1nc2cc(OC)ccc2n2c(C(F)(F)F)nnc12 (centres unmarked)", "study-system": "BRD4 (BD1+BD2) bromodomain (Homo sapiens (Human), UniProt O60885)", "pIC50": "≥ 7.30"}
{"compound": "Cc1nnc2c(NCCCCNC(=O)[C@@H](O)C(C)C)nc3cc(N4CCSCC4)ccc3n12", "study-system": "BRD4 (BD1+BD2) bromodomain (Homo sapiens (Human), UniProt O60885)", "pIC50": "≥ 7.30"}
{"compound": "COc1cc(C)c2c(c1)nc(NCCCCNC(=O)OC(C)C)c1nnc(C)n12", "study-system": "BRD4 (BD1+BD2) bromodomain (Homo sapiens (Human), UniProt O60885)", "pIC50": "≥ 7.30"}
{"compound": "COc1ccc2c(c1)nc(NCCCCNC(=O)[C@@H](Br)C(C)C)c1nnc(C)n12", "study-system": "BRD4 (BD1+BD2) bromodomain (Homo sapiens (Human), UniProt O60885)", "pIC50": "≥ 8.00"}
{"compound": "COCCOc1ccc2c(c1)nc(NCCCCNC(=O)[C@H](NC(=O)[C@@H](O)C(C)C)C(C)C)c1nnc(C)n12 (stereo in doubt)", "study-system": "BRD4 (BD1+BD2) bromodomain (Homo sapiens (Human), UniProt O60885)", "pIC50": "≥ 8.00"}
{"compound": "COc1cc2nc(NCCCCNC(=O)COC(C)=O)c3nnc(C)n3c2cc1OC", "study-system": "BRD4 (BD1+BD2) bromodomain (Homo sapiens (Human), UniProt O60885)", "pIC50": "≥ 7.30"}
{"compound": "COCCOc1ccc2c(c1)nc(NCCCCNC(=O)C=C(C)C)c1nnc(C)n12", "study-system": "BRD4 (BD1+BD2) bromodomain (Homo sapiens (Human), UniProt O60885)", "pIC50": "≥ 7.30"}
{"compound": "Cc1nnc2c(NCCCCNC(=O)OC(C)(C)C)nc3ccc(F)cc3n12", "study-system": "BRD4 (BD1+BD2) bromodomain (Homo sapiens (Human), UniProt O60885)", "pIC50": "≥ 7.30"}
{"compound": "COc1ccc2c(c1)nc(NCCCCNC(=O)CC(C)C)c1nnc(C(C)C)n12", "study-system": "BRD4 (BD1+BD2) bromodomain (Homo sapiens (Human), UniProt O60885)", "pIC50": "≥ 7.30"}
{"compound": "COc1ccc2nc(NCCCCNC(=O)c3ccccc3)c3nnc(C)n3c2c1", "study-system": "BRD4 (BD1+BD2) bromodomain (Homo sapiens (Human), UniProt O60885)", "pIC50": "≥ 7.30"}
{"compound": "COc1ccc2c(c1)nc(NCCCCNC(=O)[C@@H](C(C)C)N(C)C)c1nnc(C)n12", "study-system": "BRD4 (BD1+BD2) bromodomain (Homo sapiens (Human), UniProt O60885)", "pIC50": "≥ 7.30"}
{"compound": "C/C=C/C(=O)NCCCCNc1nc2cc(OCCOC)ccc2n2c(C)nnc12", "study-system": "BRD4 (BD1+BD2) bromodomain (Homo sapiens (Human), UniProt O60885)", "pIC50": "≥ 7.30"}
{"compound": "CCCOC(=O)N[C@H](C(=O)NCCCCNc1nc2cc(OC)ccc2n2c(C)nnc12)C(C)C", "study-system": "BRD4 (BD1+BD2) bromodomain (Homo sapiens (Human), UniProt O60885)", "pIC50": "≥ 7.30"}
